biological target: catalytic domain of the recombinant TACE protein (Homo sapiens, UniProt P78536); construct: The catalytic domain of the recombinant TACE protein was expressed and purified; made in house; assay: TACE FRET assay using TACE cat; assay type: biochemical; settings: read-out: TACE Inhibition (%)
Sequence (P78536 223-474 limits assumed): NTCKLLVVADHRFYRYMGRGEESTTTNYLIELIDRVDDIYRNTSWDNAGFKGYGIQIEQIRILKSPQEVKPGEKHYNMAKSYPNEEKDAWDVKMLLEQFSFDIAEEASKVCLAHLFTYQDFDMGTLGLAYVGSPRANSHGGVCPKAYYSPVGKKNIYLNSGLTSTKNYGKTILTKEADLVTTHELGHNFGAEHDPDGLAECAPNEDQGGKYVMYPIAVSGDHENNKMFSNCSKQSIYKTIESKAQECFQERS
Class TRUE: inhibition at 1 µM at least 30%. Class FALSE: inhibition at 1 µM below 30%.

structure_notation	system	assigned_category
CC#CCOc1ccc(S(=O)(=O)N[C@@H](Cc2cn(Cc3cc(OC)cc(OC)c3)c3ccc(C(=O)O)cc23)C(=O)O)cc1	catalytic domain of the recombinant TACE protein (Homo sapiens, UniProt P78536)	FALSE
CC#CCOc1ccc(S(=O)(=O)N[C@@H](Cc2c(C)n(Cc3ccccc3OC)c3ccc(Cl)cc23)C(=O)O)cc1	catalytic domain of the recombinant TACE protein (Homo sapiens, UniProt P78536)	TRUE
CC#CCOc1ccc(S(=O)(=O)N[C@@H](Cc2c(C)n(CC3CCCCC3)c3ccc(Cl)cc23)C(=O)O)cc1	catalytic domain of the recombinant TACE protein (Homo sapiens, UniProt P78536)	TRUE
CC#CCOc1ccc(S(=O)(=O)N[C@@H](Cc2c(C)n(Cc3ccccc3)c3ccc(Cl)cc23)C(=O)O)cc1	catalytic domain of the recombinant TACE protein (Homo sapiens, UniProt P78536)	TRUE
CC#CCOc1ccc(S(=O)(=O)N[C@@H](Cc2cn(Cc3ccc(C(=O)O)cc3)c3ccc(C(=O)O)cc23)C(=O)O)cc1	catalytic domain of the recombinant TACE protein (Homo sapiens, UniProt P78536)	FALSE
CC#CCOc1ccc(S(=O)(=O)N[C@@H](Cc2c(C)n(Cc3ccc(OC(F)(F)F)cc3)c3ccccc23)C(=O)O)cc1	catalytic domain of the recombinant TACE protein (Homo sapiens, UniProt P78536)	FALSE
CC#CCOc1ccc(S(=O)(=O)N[C@@H](Cc2c(C)n(CCCCC)c3ccc(OC)cc23)C(=O)O)cc1	catalytic domain of the recombinant TACE protein (Homo sapiens, UniProt P78536)	TRUE
CC#CCOc1ccc(S(=O)(=O)N[C@@H](Cc2c(C)n(Cc3ccc(C(C)C)cc3)c3ccc(OC)cc23)C(=O)O)cc1	catalytic domain of the recombinant TACE protein (Homo sapiens, UniProt P78536)	TRUE
CC#CCOc1ccc(S(=O)(=O)N[C@@H](Cc2cn(Cc3ccccc3C)c3ccc(OC)cc23)C(=O)O)cc1	catalytic domain of the recombinant TACE protein (Homo sapiens, UniProt P78536)	TRUE
CC#CCOc1ccc(S(=O)(=O)N[C@@H](Cc2c(C)n(Cc3ccc(C(C)C)cc3)c3ccccc23)C(=O)O)cc1	catalytic domain of the recombinant TACE protein (Homo sapiens, UniProt P78536)	TRUE
CC#CCOc1ccc(S(=O)(=O)N[C@@H](Cc2cn(Cc3ccccc3OC)c3ccc(Cl)cc23)C(=O)O)cc1	catalytic domain of the recombinant TACE protein (Homo sapiens, UniProt P78536)	FALSE
CC#CCOc1ccc(S(=O)(=O)N[C@@H](Cc2cn(Cc3ccccc3)c3ccc(C(=O)O)cc23)C(=O)O)cc1	catalytic domain of the recombinant TACE protein (Homo sapiens, UniProt P78536)	FALSE
CC#CCOc1ccc(S(=O)(=O)N[C@@H](Cc2cn(Cc3ccccc3F)c3ccc(C(=O)O)cc23)C(=O)O)cc1	catalytic domain of the recombinant TACE protein (Homo sapiens, UniProt P78536)	FALSE

* * *

biological target: catalytic domain of the recombinant TACE protein (Homo sapiens); construct: The catalytic domain of the recombinant TACE protein was expressed and purified; made in house; assay: TACE FRET assay using TACE cat; assay type: biochemical; conditions: read-out: TACE Inhibition (%)
We begin with a simple list: items and their reported inhibition at 1 µM.
endpoint_name: inhibition at 1 µM

structure_notation	system	result
CC#CCOc1ccc(S(=O)(=O)N[C@@H](Cc2c(C)n(C)c3ccc(OC)cc23)C(=O)O)cc1	catalytic domain of the recombinant TACE protein (Homo sapiens)	61.8%
CC#CCOc1ccc(S(=O)(=O)N[C@@H](Cc2cn(CC)c3ccc(C(=O)O)cc23)C(=O)O)cc1	catalytic domain of the recombinant TACE protein (Homo sapiens)	-0.6%
CC#CCOc1ccc(S(=O)(=O)N[C@@H](Cc2cn(CC3CCC3)c3ccc(C(=O)O)cc23)C(=O)O)cc1	catalytic domain of the recombinant TACE protein (Homo sapiens)	-1.21%
CC#CCOc1ccc(S(=O)(=O)N[C@@H](Cc2c(C)n(Cc3cccc(OC)c3)c3ccc(Cl)cc23)C(=O)O)cc1	catalytic domain of the recombinant TACE protein (Homo sapiens)	65.2%
CC#CCOc1ccc(S(=O)(=O)N[C@@H](Cc2cn(Cc3ccccc3)c3ccc(C#N)cc23)C(=O)O)cc1	catalytic domain of the recombinant TACE protein (Homo sapiens)	29.6%
CC#CCOc1ccc(S(=O)(=O)N[C@@H](Cc2cn(Cc3cccc(OC)c3)c3ccc(C#N)cc23)C(=O)O)cc1	catalytic domain of the recombinant TACE protein (Homo sapiens)	29.4%
CC#CCOc1ccc(S(=O)(=O)N[C@@H](Cc2c(C)n(Cc3ccc(OC(F)(F)F)cc3)c3ccc(OC)cc23)C(=O)O)cc1	catalytic domain of the recombinant TACE protein (Homo sapiens)	72.8%
CC#CCOc1ccc(S(=O)(=O)N[C@@H](Cc2c(C)n(Cc3ccc(F)cc3)c3ccc(Cl)cc23)C(=O)O)cc1	catalytic domain of the recombinant TACE protein (Homo sapiens)	63.6%
CC#CCOc1ccc(S(=O)(=O)N[C@@H](Cc2cn(Cc3cccc(F)c3)c3ccc(C(=O)O)cc23)C(=O)O)cc1	catalytic domain of the recombinant TACE protein (Homo sapiens)	9.72%
CC#CCOc1ccc(S(=O)(=O)N[C@@H](Cc2cn(Cc3ccc(OC)cc3)c3ccc(C(=O)O)cc23)C(=O)O)cc1	catalytic domain of the recombinant TACE protein (Homo sapiens)	7.93%
CC#CCOc1ccc(S(=O)(=O)N[C@@H](Cc2cn(CC(C)C)c3ccc(C#N)cc23)C(=O)O)cc1	catalytic domain of the recombinant TACE protein (Homo sapiens)	32.4%
CC#CCOc1ccc(S(=O)(=O)N[C@@H](Cc2cn(Cc3ccccc3)c3ccc(Cl)cc23)C(=O)O)cc1	catalytic domain of the recombinant TACE protein (Homo sapiens)	-1.19%
CC#CCOc1ccc(S(=O)(=O)N[C@@H](Cc2c(C)n(Cc3cccc(C)c3)c3ccc(OC)cc23)C(=O)O)cc1	catalytic domain of the recombinant TACE protein (Homo sapiens)	78.8%
CC#CCOc1ccc(S(=O)(=O)N[C@@H](Cc2cn(Cc3ccc4c(c3)OCO4)c3ccc(Cl)cc23)C(=O)O)cc1	catalytic domain of the recombinant TACE protein (Homo sapiens)	31.1%
CC#CCOc1ccc(S(=O)(=O)N[C@@H](Cc2c(C)n(Cc3ccccc3C#N)c3ccc(OC)cc23)C(=O)O)cc1	catalytic domain of the recombinant TACE protein (Homo sapiens)	56.8%
CC#CCOc1ccc(S(=O)(=O)N[C@@H](Cc2cn(Cc3ccc(F)cc3)c3ccc(OC)cc23)C(=O)O)cc1	catalytic domain of the recombinant TACE protein (Homo sapiens)	43.5%
CC#CCOc1ccc(S(=O)(=O)N[C@@H](Cc2cn(Cc3ccc(C)cc3)c3ccc(C(=O)O)cc23)C(=O)O)cc1	catalytic domain of the recombinant TACE protein (Homo sapiens)	5.53%
CC#CCOc1ccc(S(=O)(=O)N[C@@H](Cc2cn(Cc3ccccc3OC)c3ccc(C#N)cc23)C(=O)O)cc1	catalytic domain of the recombinant TACE protein (Homo sapiens)	12.1%
CC#CCOc1ccc(S(=O)(=O)N[C@@H](Cc2cn(Cc3ccccc3C)c3ccc(C(=O)O)cc23)C(=O)O)cc1	catalytic domain of the recombinant TACE protein (Homo sapiens)	5.79%
CC#CCOc1ccc(S(=O)(=O)N[C@@H](Cc2cn(Cc3cccc(F)c3)c3ccc(Cl)cc23)C(=O)O)cc1	catalytic domain of the recombinant TACE protein (Homo sapiens)	27.1%
CC#CCOc1ccc(S(=O)(=O)N[C@@H](Cc2cn(Cc3ccc(Cl)cc3)c3ccc(Cl)cc23)C(=O)O)cc1	catalytic domain of the recombinant TACE protein (Homo sapiens)	13.9%
CC#CCOc1ccc(S(=O)(=O)N[C@@H](Cc2c(C)n(Cc3ccc(Cl)cc3)c3ccc(Cl)cc23)C(=O)O)cc1	catalytic domain of the recombinant TACE protein (Homo sapiens)	56.5%
CC#CCOc1ccc(S(=O)(=O)N[C@@H](Cc2c(C)n(Cc3ccccc3OC)c3ccccc23)C(=O)O)cc1	catalytic domain of the recombinant TACE protein (Homo sapiens)	35.9%
CC#CCOc1ccc(S(=O)(=O)N[C@@H](Cc2cn(CC3CCCCC3)c3ccc(C(=O)O)cc23)C(=O)O)cc1	catalytic domain of the recombinant TACE protein (Homo sapiens)	9.55%
CC#CCOc1ccc(S(=O)(=O)N[C@@H](Cc2c(C)n(Cc3ccc(OC(F)(F)F)cc3)c3ccc(Cl)cc23)C(=O)O)cc1	catalytic domain of the recombinant TACE protein (Homo sapiens)	47.4%
CC#CCOc1ccc(S(=O)(=O)N[C@@H](Cc2cn(Cc3cc(F)cc(F)c3)c3ccc(OC)cc23)C(=O)O)cc1	catalytic domain of the recombinant TACE protein (Homo sapiens)	39.5%
CC#CCOc1ccc(S(=O)(=O)N[C@@H](Cc2c(C)n(Cc3cccc(OC)c3)c3ccccc23)C(=O)O)cc1	catalytic domain of the recombinant TACE protein (Homo sapiens)	35.6%

Attribution: patent US7576222B2
